The measurements presented in this section are drawn from ChEMBL document CHEMBL1155120.

Test: Inhibition of VZV DNA polymerase by scintillation proximity assay
Design: species or system Human alphaherpesvirus 3
measurement.type: IC50 (nM)

line_notation=CN(Cc1cc2c(=O)c(C(=O)NCc3ccc(Cl)cc3)cn(C)c2o1)C[C@@H](O)c1ccco1 measurement_type=IC50 observed_value=78
line_notation=CN(Cc1cc2c(=O)c(C(=O)NCc3ccc(Cl)cc3)cn(C)c2o1)C[C@@H](O)c1ccccn1 measurement_type=IC50 observed_value=100

###

Assay: Inhibition of HCMV DNA polymerase by scintillation proximity assay
Parameters: species or system Human betaherpesvirus 5
pIC50: −log10 of the molar value.
measurement.type: pIC50

line_notation=CCn1cc(C(=O)NCc2ccc(Cl)cc2)c(=O)c2cc(CN(C)C[C@@H](O)c3ccco3)oc21 measurement_type=pIC50 observed_value=6.29
line_notation=CCN(CC)CCn1cc(C(=O)NCc2ccc(Cl)cc2)c(=O)c2cc(CN(C)C[C@@H](O)c3ccco3)oc21 measurement_type=pIC50 observed_value=5.41
line_notation=CN(Cc1cc2c(=O)c(C(=O)NCc3ccc(Cl)cc3)cn(C)c2o1)C[C@@H](O)c1cnccn1 measurement_type=pIC50 observed_value=6.66
line_notation=CN(Cc1cc2c(=O)c(C(=O)NCc3ccc(Cl)cc3)cn(C3CC3)c2o1)C[C@@H](O)c1ccco1 measurement_type=pIC50 observed_value=6.38
line_notation=CN(Cc1cc2c(=O)c(C(=O)NCc3ccc(Cl)cc3)cn(C)c2o1)C[C@@H](O)c1ccco1 measurement_type=pIC50 observed_value=7.12
line_notation=CN(Cc1cc2c(=O)c(C(=O)NCc3ccc(C(F)(F)F)cc3)cn(C)c2o1)C[C@@H](O)c1ccco1 measurement_type=pIC50 observed_value=5.19
line_notation=CN(Cc1cc2c(=O)c(C(=O)NCc3ccc(Cl)cc3)cn(-c3ccccc3)c2o1)C[C@@H](O)c1ccco1 measurement_type=pIC50 observed_value=6.08
line_notation=CN(Cc1cc2c(=O)c(C(=O)NCc3ccc(Cl)cc3)cn(CCc3ccccc3)c2o1)C[C@@H](O)c1ccco1 measurement_type=pIC50 observed_value=6.16
line_notation=Cc1ccc(CNC(=O)c2cn(C)c3oc(CN(C)C[C@@H](O)c4ccco4)cc3c2=O)cc1 measurement_type=pIC50 observed_value=5.50
line_notation=CN(Cc1cc2c(=O)c(C(=O)NCc3ccc(Cl)cc3)cn(-c3ccccn3)c2o1)C[C@@H](O)c1ccco1 measurement_type=pIC50 observed_value=6.85
line_notation=CN(Cc1cc2c(=O)c(C(=O)NCc3ccc(F)c(F)c3)cn(C)c2o1)C[C@@H](O)c1ccco1 measurement_type=pIC50 observed_value=5.99
line_notation=CN(Cc1cc2c(=O)c(C(=O)NCc3ccc(Br)cc3)cn(C)c2o1)C[C@@H](O)c1ccco1 measurement_type=pIC50 observed_value=6.47
line_notation=CN(Cc1cc2c(=O)c(C(=O)NCc3ccccc3)cn(C)c2o1)C[C@@H](O)c1ccco1 measurement_type=pIC50 observed_value=4.94

###

Catalogue of molecules with associated IC50
Experiment: Inhibition of HCMV DNA polymerase by scintillation proximity assay
Set-up: species or system Human betaherpesvirus 5
measurement.type: IC50 (nM)

line_notation=CCCn1cc(C(=O)NCc2ccc(Cl)cc2)c(=O)c2cc(CN(C)C[C@@H](O)c3ccco3)oc21 measurement_type=IC50 observed_value=1120
line_notation=CN(Cc1cc2c(=O)c(C(=O)NCc3ccc(Cl)cc3)cn(C)c2o1)C[C@@H](O)c1ncccn1 measurement_type=IC50 observed_value=170
line_notation=CN(Cc1cc2c(=O)c(C(=O)NCc3ccc(Cl)cc3)cn(C)c2o1)C[C@@H](O)c1ccccn1 measurement_type=IC50 observed_value=220
line_notation=CN(Cc1cc2c(=O)c(C(=O)NCc3ccc(F)cc3)cn(C)c2o1)C[C@@H](O)c1ccco1 measurement_type=IC50 observed_value=610
